All values here come from patent US20250115598A1.

Collected IC50 values appear next to each entry.
system: Immortalised Mouse Dermal Fibroblasts (MDFs); assay: Cellular assay: inhibition of TSI induced necroptosis, CellTitre-Glo viability; conditions: Mus musculus, Fibroblast; MDF, 3 hours TSI cocktail, Table 27; read-out: Inhibition of TSI-induced necroptosis (IC50 cell-based assay) in MDF

# Compound, Endpoint result
measured = [
    ("C[C@H](Oc1cc(-c2nn(C)c3c(-c4cnn(C5CCN(C(=O)[C@]6(F)C[C@@H](Nc7cccc8c7C(=O)N(C7CCC(=O)NC7=O)C8=O)C6)CC5)c4)cnc(N)c23)ccc1NS(=O)(=O)C(F)F)c1ccc(F)cc1 (stereo partly drawn)", "< 1 µM"),
    ("Cc1ncsc1-c1ccc(CNC(=O)[C@@H]2C[C@@H](O)CN2C(=O)[C@@H](NC(=O)CCCCCOc2ccc(-c3cnc(N)c4c(-c5ccc(NS(=O)(=O)C(F)F)c(O[C@@H](C)c6ccc(F)cc6)c5)nn(C)c34)cc2)C(C)(C)C)cc1", "1 to 10 µM"),
    ("Cc1ncsc1-c1ccc(CNC(=O)[C@@H]2C[C@@H](O)CN2C(=O)[C@@H](NC(=O)C2(F)CC2)C(C)(C)C)c(OCCOCCOCCOCCn2cc(-c3cnc(N)c4c(-c5ccc(NS(=O)(=O)C(F)F)c(O[C@@H](C)c6ccc(F)cc6)c5)nn(C)c34)cn2)c1", "1 to 10 µM"),
    ("C[C@H](Oc1cc(-c2nn(C)c3c(-c4cnn(C5CCN(C(=O)C6CC7(C6)CN(c6cccc8c6C(=O)N(C6CCC(=O)NC6=O)C8=O)C7)CC5)c4)cnc(N)c23)ccc1NS(=O)(=O)C(F)F)c1ccc(F)cc1 (stereo partly drawn)", "< 1 µM"),
    ("C[C@H](Oc1cc(-c2nn(C)c3c(-c4cnn(C5CCN(C(=O)c6ccc(C(=O)NC7CCC(=O)NC7=O)cc6)CC5)c4)cnc(N)c23)ccc1NS(=O)(=O)C(F)F)c1ccc(F)cc1 (stereo partly drawn)", "1 to 10 µM"),
    ("C[C@H](Oc1cc(-c2nn(C)c3c(-c4cnn(C5CCN(C(=O)[C@H]6C[C@H](Nc7ccc8c(c7)C(=O)N(C7CCC(=O)NC7=O)C8=O)C6)CC5)c4)cnc(N)c23)ccc1NS(=O)(=O)C(F)F)c1ccc(F)cc1 (stereo partly drawn)", "< 1 µM"),
    ("C[C@H](Oc1cc(-c2nn(C)c3c(-c4cnn(C5CCN(C(=O)[C@]6(F)C[C@H](Nc7cccc8c7C(=O)N(C7CCC(=O)NC7=O)C8=O)C6)CC5)c4)cnc(N)c23)ccc1NS(=O)(=O)C(F)F)c1ccc(F)cc1 (stereo partly drawn)", "< 1 µM"),
    ("C[C@H](Oc1cc(-c2nn(C)c3c(-c4cnn(C5CCN(C(=O)[C@H]6C[C@H](Nc7cccc8c7C(=O)N(C7CCC(=O)NC7=O)C8=O)C6)CC5)c4)cnc(N)c23)ccc1NS(=O)(=O)C(F)F)c1ccc(F)cc1 (stereo partly drawn)", "< 1 µM"),
]

Here is another compound to look at.
Input line: Give its IC50 value. Item: C[C@H](Oc1cc(-c2nn(C)c3c(-c4cnn(C5CCN(C(=O)C6CCC(c7ccc8c(c7)C(=O)N(C7CCC(=O)NC7=O)C8=O)CC6)CC5)c4)cnc(N)c23)ccc1NS(=O)(=O)C(F)F)c1ccc(F)cc1 (stereo partly drawn)
Output line: < 1 µM
